# herbicidal effect rating listing for each entry below
# Tested on: ORYSAT
# assay overview: Preemergence herbicidal evaluation
# Assay type: in vivo, Oryza sativa
# Set-up: scale not given here
# run parameters: 0.2500 kg/ha
Write the number on its own, no unit after it.

Solved cases (5 shown):
{"smiles structure": "O=C1C2=C(CCCC2)C(=O)N1c1ccc2snc(-c3ccccc3)c2c1", "herbicidal effect rating": 3.0}
{"smiles structure": "Cc1nsc2ccc(N3C(=O)C4=C(CCCC4)C3=O)cc12", "herbicidal effect rating": 2.0}
{"smiles structure": "O=C1C2=C(CCCC2)C(=O)N1c1ccc2sncc2c1", "herbicidal effect rating": 4.0}
{"smiles structure": "Cn1c(C(F)(F)F)cc(=O)n(-c2ccc3snc(-c4ccccc4)c3c2)c1=O", "herbicidal effect rating": 7.0}
{"smiles structure": "Cc1nsc2ccc(-n3c(=O)cc(C(F)(F)F)n(C)c3=O)cc12", "herbicidal effect rating": 8.0}

Lab note: next compound to report on.
Kindly note the recorded herbicidal effect rating for "CN(C)C(=O)c1nsc2ccc(-n3c(=O)cc(C(F)(F)F)n(C)c3=O)cc12" , which is 8.0

Where do the numbers come from? From patent US6156700A.
